tgt: human Nav1.5 (Homo sapiens, UniProt Q14524)
Construct: expressed in transfected cells; host or cells: CHO-K1 (T-REx System, ThermoFisher Scientific)
Sequence (Q14524 1-2015 isoform Q14524-2): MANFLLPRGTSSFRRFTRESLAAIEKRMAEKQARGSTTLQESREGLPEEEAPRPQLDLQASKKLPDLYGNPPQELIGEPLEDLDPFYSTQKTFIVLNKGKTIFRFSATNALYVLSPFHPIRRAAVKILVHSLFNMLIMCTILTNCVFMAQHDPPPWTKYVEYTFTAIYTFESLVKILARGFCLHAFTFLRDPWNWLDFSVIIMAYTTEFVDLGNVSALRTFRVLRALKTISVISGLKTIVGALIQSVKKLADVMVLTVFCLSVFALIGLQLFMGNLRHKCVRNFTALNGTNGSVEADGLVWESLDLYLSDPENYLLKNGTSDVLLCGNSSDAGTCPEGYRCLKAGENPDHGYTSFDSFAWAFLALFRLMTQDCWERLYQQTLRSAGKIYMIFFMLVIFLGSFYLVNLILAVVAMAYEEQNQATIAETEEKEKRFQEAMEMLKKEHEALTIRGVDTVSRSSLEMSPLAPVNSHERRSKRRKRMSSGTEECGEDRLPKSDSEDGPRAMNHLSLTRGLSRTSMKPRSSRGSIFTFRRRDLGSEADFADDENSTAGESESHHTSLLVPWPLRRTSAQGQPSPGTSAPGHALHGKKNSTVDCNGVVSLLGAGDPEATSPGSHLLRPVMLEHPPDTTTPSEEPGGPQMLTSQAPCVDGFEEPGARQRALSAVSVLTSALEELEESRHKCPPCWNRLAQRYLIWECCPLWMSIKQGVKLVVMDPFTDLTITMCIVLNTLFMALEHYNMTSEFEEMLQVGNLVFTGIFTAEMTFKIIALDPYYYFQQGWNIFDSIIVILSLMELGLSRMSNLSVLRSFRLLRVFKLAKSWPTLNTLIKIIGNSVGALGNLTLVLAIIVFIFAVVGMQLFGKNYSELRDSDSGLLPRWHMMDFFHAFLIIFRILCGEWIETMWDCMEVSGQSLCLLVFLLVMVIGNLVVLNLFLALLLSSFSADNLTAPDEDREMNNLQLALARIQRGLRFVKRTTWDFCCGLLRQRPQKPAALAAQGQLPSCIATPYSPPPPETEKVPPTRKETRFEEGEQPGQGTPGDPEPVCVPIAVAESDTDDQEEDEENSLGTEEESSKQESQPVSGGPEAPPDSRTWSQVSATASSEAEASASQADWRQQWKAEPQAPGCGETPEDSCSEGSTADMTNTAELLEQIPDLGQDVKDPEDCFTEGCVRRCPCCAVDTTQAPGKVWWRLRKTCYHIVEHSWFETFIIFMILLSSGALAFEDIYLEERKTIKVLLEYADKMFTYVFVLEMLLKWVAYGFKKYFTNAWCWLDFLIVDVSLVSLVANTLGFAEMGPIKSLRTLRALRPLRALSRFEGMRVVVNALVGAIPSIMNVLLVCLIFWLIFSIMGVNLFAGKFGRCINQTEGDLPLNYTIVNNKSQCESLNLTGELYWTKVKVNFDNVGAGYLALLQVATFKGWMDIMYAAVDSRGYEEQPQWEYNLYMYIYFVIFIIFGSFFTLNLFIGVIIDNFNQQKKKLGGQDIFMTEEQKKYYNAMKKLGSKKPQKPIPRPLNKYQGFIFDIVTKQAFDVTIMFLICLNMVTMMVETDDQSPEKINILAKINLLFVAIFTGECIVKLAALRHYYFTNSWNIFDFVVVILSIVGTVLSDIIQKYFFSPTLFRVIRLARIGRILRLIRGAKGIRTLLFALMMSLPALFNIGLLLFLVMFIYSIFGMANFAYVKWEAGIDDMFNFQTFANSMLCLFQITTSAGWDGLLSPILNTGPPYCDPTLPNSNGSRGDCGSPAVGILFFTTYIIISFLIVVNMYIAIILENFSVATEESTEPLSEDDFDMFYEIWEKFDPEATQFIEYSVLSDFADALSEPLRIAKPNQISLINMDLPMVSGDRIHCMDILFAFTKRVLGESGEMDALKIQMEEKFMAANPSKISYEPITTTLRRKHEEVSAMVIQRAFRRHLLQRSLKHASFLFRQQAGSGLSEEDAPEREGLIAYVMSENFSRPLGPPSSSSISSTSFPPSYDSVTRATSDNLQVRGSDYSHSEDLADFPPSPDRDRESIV
test protocol: Amplification of Nav1.5-derived voltage-dependent sodium current (Nav1.5 current), cell line stably expressing human Nav1.5, automated patch clamp
Assay type: cell-based
measurement conditions: 10 μmol/L compound; change of the area under the curve of Nav1.5 current (Test Result 1)
Exercise: state measured Nav1.5 current amplification rate (%) for each of the molecules provided.
Report the figure in % without appending any unit label.

Give the measured Nav1.5 current amplification rate (%) of CC1CC=C(c2ccc(=O)n(CC(=O)Nc3ccn4cc(C(F)(F)F)nc4c3)n2)CC1 (centres unmarked) .
34

Fill in: Nav1.5 current amplification rate (%) of COc1cc(=O)n(CC(=O)Nc2ccn3ccnc3c2)nc1C1=CCC(C)(C)CC1 is ___
21

Look up Nav1.5 current amplification rate (%): CC1CC=C(c2ccc(=O)n(CC(=O)N3CCc4c3ccnc4Cl)n2)CC1 (racemic)
43

Requested field: Nav1.5 current amplification rate (%). Item: Cc1noc2ccc(NC(=O)Cn3nc(N4CCC(C)CC4)ccc3=O)cc12
0

Fill in the blank: the reported Nav1.5 current amplification rate (%) of Cc1cc(NC(=O)Cn2nc(N3CCC(C)CC3)ccc2=O)cc2ncoc12 is ____.
7

Form field: reported Nav1.5 current amplification rate (%) of CC1CCC(c2ccc(=O)n(CC(=O)N3CCc4c(N5CCOCC5)cccc43)n2)CC1 (mixture of isomers) [Example 472]
56

Look at this molecule and give its reported Nav1.5 current amplification rate (%). COc1nc2cc(NC(=O)Cn3nc(N4CCC(C)CC4)ccc3=O)ccc2o1
4

Entry COc1cc(NC(=O)Cn2nc(N3CCC(C)CC3)ccc2=O)ccn1 : reported Nav1.5 current amplification rate (%) = ?
−2

====

tgt: human Nav1.1 (Homo sapiens)
Construct: host or cells: HEK293
test protocol: Amplification of Nav1.1-derived voltage-dependent sodium current (Nav1.1 current), cell line stably expressing human Nav1.1, automated patch clamp
Format: cell-based
measurement conditions: 10 μmol/L compound; change of the area under the curve of Nav1.1 current (Test Result 1)
parameter: Nav1.1 current amplification rate (%)
Respond numerically; units are % and should not be typed.

Lab note: need Nav1.1 current amplification rate (%) with human Nav1.1 (Homo sapiens) for entry CC1CCN(c2ccc(=O)n(CC(=O)Nc3cccc(-c4nccs4)c3)n2)CC1 [Example 80] , please look it up.
131

Find Nav1.1 current amplification rate (%) (human Nav1.1 (Homo sapiens)) for the entry CC1(C)CC=C(c2ccc(=O)n(CC(=O)N3CCN(c4ccccn4)CC3)n2)CC1 [Example 439]
87

// fetch human Nav1.1 (Homo sapiens) Nav1.1 current amplification rate (%) for CC1CCN(c2ccc(=O)n(CC(=O)Nc3cc(Cl)c4ocnc4c3)n2)CC1 [Example 94]
198

Notebook entry, human Nav1.1 (Homo sapiens) assay: Nav1.1 current amplification rate (%) of O=C(Cn1nc(C2=CCC(C(F)(F)F)CC2)ccc1=O)Nc1ccc2ocnc2c1 (stereo not drawn) [Example 446] = ?
333

// map CC1CCN(c2ccc(=O)n(CC(=O)Nc3ccc(C(=O)N4CCCC4)cc3)n2)CC1 [Example 79] to recorded Nav1.1 current amplification rate (%) (system: human Nav1.1 (Homo sapiens))
165

What measured Nav1.1 current amplification rate (%) is associated with Cc1ccc(N2CCN(C(=O)Cn3nc(C4=CCC(C)CC4)ccc3=O)CC2)cn1 (racemic) [Example 396] on human Nav1.1 (Homo sapiens)?
136

Please provide the recorded Nav1.1 current amplification rate (%) for CC1CC=C(c2ccc(=O)n(CC(=O)N3CC=C(c4nccc5occc45)CC3)n2)CC1 (stereo not drawn) [Example 404] , tested on human Nav1.1 (Homo sapiens).
42

Under human Nav1.1 (Homo sapiens): Nav1.1 current amplification rate (%) value of CC1CCN(c2ccc(=O)n(CC(=O)Nc3cccc(-c4ncco4)c3)n2)CC1 [Example 78] ?
78

I'm curious: which Nav1.1 current amplification rate (%) was measured for COc1cc(=O)n(CC(=O)Nc2ccn3ccnc3c2)nc1C1=CCC(C)(C)CC1 [Example 459] tested on human Nav1.1 (Homo sapiens)?
118

Reported Nav1.1 current amplification rate (%) for human Nav1.1 (Homo sapiens), given Cc1ccc(-c2ccc(=O)n(CC(=O)N3CCc4cnccc43)n2)cc1 [Example 159] ?
32

Lab note: need Nav1.1 current amplification rate (%) with human Nav1.1 (Homo sapiens) for entry CC1(C)CC=C(c2ccc(=O)n(CC(=O)N3CCc4c(OC5COC5)cccc43)n2)CC1 [Example 436] , please look it up.
226

Requested read-out Nav1.1 current amplification rate (%), target or system human Nav1.1 (Homo sapiens), entry Cc1noc2cc(NC(=O)Cn3nc(C4=CCC(C)CC4)ccc3=O)ccc12 (racemic) [Example 240]
241

Query Nav1.1 current amplification rate (%) on human Nav1.1 (Homo sapiens) for CC1CC=C(c2ccc(=O)n(CC(=O)N3CCN(c4cncc(F)c4)CC3)n2)CC1 (racemic) [Example 263]
342

# returns recorded Nav1.1 current amplification rate (%) (system: human Nav1.1 (Homo sapiens)) for COc1ncc(C2=CCN(C(=O)Cn3nc(C4=CCC(C)CC4)ccc3=O)CC2)cn1 (racemic) [Example 400]
238

Notebook: pull reported Nav1.1 current amplification rate (%) for human Nav1.1 (Homo sapiens), entry COc1cncc(C2=CCN(C(=O)Cn3nc(C4=CCC(C)CC4)ccc3=O)CC2)c1 (stereo not drawn) [Example 403]
270

Please tell me: Nav1.1 current amplification rate (%) of CC1CCN(c2ccc(=O)n(CC(=O)Nc3ccc4scnc4c3)n2)CC1 [Example 87] , system human Nav1.1 (Homo sapiens)?
255

Lab note: need Nav1.1 current amplification rate (%) for COc1cc(=O)n(CC(=O)N2CCc3c(N4CCOCC4)cccc32)nc1C1=CCC(C(F)(F)F)CC1 (racemic) [Example 476] on human Nav1.1 (Homo sapiens), anyone have it?
343

Observed Nav1.1 current amplification rate (%) on human Nav1.1 (Homo sapiens) for Cc1noc2ccc(NC(=O)Cn3nc(C4=CCC(C)CC4)ccc3=O)cc12 (stereo not drawn) [Example 423] , please.
11

Item: CC1CC=C(c2ccc(=O)n(CC(=O)N3CCC(c4ccccn4)CC3)n2)CC1 (racemic) [Example 260] Test system: human Nav1.1 (Homo sapiens) Read-out: Nav1.1 current amplification rate (%) Value: ?
13

Hello, I am looking for reported Nav1.1 current amplification rate (%) with human Nav1.1 (Homo sapiens) for Cc1cc(=O)n(CC(=O)Nc2ccn3ccnc3c2)nc1C1=CCC(C)(C)CC1 [Example 461] . Could you help?
337

For the record CC1(C)CC=C(c2ccc(=O)n(CC(=O)N3CCN(c4cccnc4)CC3)n2)CC1 [Example 440] , what value of Nav1.1 current amplification rate (%) is listed for human Nav1.1 (Homo sapiens)?
196

Form field - read-out: Nav1.1 current amplification rate (%); system: human Nav1.1 (Homo sapiens); submitted item: COc1cc(=O)n(CC(=O)Nc2ccc3ocnc3c2)nc1C1=CCC(C)(C)CC1 [Example 451]
365

Notebook: pull reported Nav1.1 current amplification rate (%) for human Nav1.1 (Homo sapiens), entry CC1CC=C(c2ccc(=O)n(CC(=O)Nc3ccn4cc(C(F)(F)F)nc4c3)n2)CC1 (stereo not drawn) [Example 421]
199

Please provide the recorded Nav1.1 current amplification rate (%) for COc1cccc2c1CCN2C(=O)Cn1nc(C2=CCC(C)(C)CC2)ccc1=O [Example 431] , tested on human Nav1.1 (Homo sapiens).
11

# value lookup — system human Nav1.1 (Homo sapiens), readout Nav1.1 current amplification rate (%), item Cc1cc(C2=CCC(C)(C)CC2)nn(CC(=O)Nc2ccn3ccnc3c2)c1=O [Example 460]
221

Lookup: Nav1.1 current amplification rate (%) / human Nav1.1 (Homo sapiens) / CC1CCN(c2ccc(=O)n(CC(=O)Nc3cccc(-c4cnco4)c3)n2)CC1 [Example 77]
93

Nav1.1 current amplification rate (%) of CC1CC=C(c2ccc(=O)n(CC(=O)N3CC=C(c4cncnc4)CC3)n2)CC1 (racemic) [Example 398] on human Nav1.1 (Homo sapiens)?
175

Lab note: need Nav1.1 current amplification rate (%) for CC1CCN(c2ccc(=O)n(CC(=O)Nc3ccc4oc(N(C)C)nc4c3)n2)CC1 [Example 91] on human Nav1.1 (Homo sapiens), anyone have it?
93

human Nav1.1 (Homo sapiens) / Nav1.1 current amplification rate (%) / CC1CCN(c2ccc(=O)n(CC(=O)Nc3ccnc(C(F)(F)F)c3)n2)CC1 [Example 52] : value?
248

Lab note: need Nav1.1 current amplification rate (%) with human Nav1.1 (Homo sapiens) for entry CC1CCN(c2ccc(=O)n(CC(=O)Nc3ccc4oc(=O)[nH]c4c3)n2)CC1 [Example 82] , please look it up.
121

Notebook entry, human Nav1.1 (Homo sapiens) assay: Nav1.1 current amplification rate (%) of COc1cc(C2=CCC(C)CC2)nn(CC(=O)Nc2ccc3ocnc3c2)c1=O (stereo not drawn) [Example 449] = ?
250

Query Nav1.1 current amplification rate (%) on human Nav1.1 (Homo sapiens) for CN1CCN(c2cccc3c2CCN3C(=O)Cn2nc(C3=CCC(C)(C)CC3)ccc2=O)CC1 [Example 433]
192

Can you look up Nav1.1 current amplification rate (%) on human Nav1.1 (Homo sapiens) for CC1(C)CC=C(c2ccc(=O)n(CC(=O)N3CCN(c4cncc(F)c4)CC3)n2)C1 [Example 483] ?
175
